# CAR-J2 EC50 per record follows
# testedOn: human GPRC5D (human, UniProt Q9NZD1 1-345)
# Sequence (Q9NZD1 whole entry): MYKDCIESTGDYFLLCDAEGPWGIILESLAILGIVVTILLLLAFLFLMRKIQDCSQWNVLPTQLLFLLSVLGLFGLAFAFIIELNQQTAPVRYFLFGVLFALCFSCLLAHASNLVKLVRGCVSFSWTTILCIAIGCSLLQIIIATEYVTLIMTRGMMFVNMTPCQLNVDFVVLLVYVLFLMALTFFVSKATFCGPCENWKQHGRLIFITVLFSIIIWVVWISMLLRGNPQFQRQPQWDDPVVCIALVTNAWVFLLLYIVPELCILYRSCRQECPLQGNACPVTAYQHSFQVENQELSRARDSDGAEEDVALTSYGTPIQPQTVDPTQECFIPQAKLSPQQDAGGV
# assayMethodText: cell-based or functional assay
Answer with the number, then the unit.

# CAR-J2 EC50 lookup, item P1AE5738 (antibody, V domains shown) VH: QVQLVESGGGVVQPGRSLRLSCAASGFSFSNYGMAWVRQAPGKGLEWVASISTGGGNTYYRDSVKGRFTISRDNSKNTLYLQMNSLRAEDTAVYYCTRHDRGGLYWGQGTMVTVSS VL: EIVLTQSPGTLSLSPGERATLSCRASKSLLHSNGITYVYWYQQKPGQAPRLLIYRMSNLASGIPDRFSGSGSGTDFTLTISRLEPEDFAVYHCGQLLENPYTFGQGTKLEIK
0.397 µg/mL

# CAR-J2 EC50 lookup, item P1AE5755 (antibody, V domains shown) VH: EVQLVESGGGLVQPGGSLRLSCAASGFSFSNYGMAWVRQAPGKGLEWVASISTGGGNTYYRDSVKGRFTISRDNAKNTLYLQMNSLRAEDTAVYYCTRHDRGGLYWGQGTMVTVSS VL: DIVMTQSPLSLPVTPGEPASISCRSSKSLLHSNGITYVYWYLQKPGQSPQVLIYRMSNLASGVPDRFSGSGSGTDFTLKISRVEAEDVGVYHCGQLLENPYTFGQGTKLEIK
0.152 µg/mL

# CAR-J2 EC50 lookup, item P1AE5758 (antibody, V domains shown) VH: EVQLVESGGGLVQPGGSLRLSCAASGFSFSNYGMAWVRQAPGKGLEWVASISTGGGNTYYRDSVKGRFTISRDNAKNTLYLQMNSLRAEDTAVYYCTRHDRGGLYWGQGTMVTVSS VL: DIVMTQSPDSLAVSLGERATINCKSSKSLLHSNGITYVYWYQQKPGQPPKLLIYRMSNLASGVPDRFSGSGSGTDFTLTISSLQAEDVAVYHCGQLLENPYTFGQGTKLEIK
0.19 µg/mL

# CAR-J2 EC50 lookup, item P1AE5760 (antibody, V domains shown) VH: EVQLVESGGGLVQPGGSLRLSCAASGFSFSNYGMAWVRQAPGKGLEWVASISTGGGNTYYADSVKGRFTISRDNAKNTLYLQMNSLRAEDTAVYYCTRHDRGGLYWGQGTMVTVSS VL: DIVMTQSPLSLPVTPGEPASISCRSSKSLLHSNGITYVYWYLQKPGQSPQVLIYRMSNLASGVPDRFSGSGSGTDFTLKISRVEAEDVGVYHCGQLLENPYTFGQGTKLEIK
0.19 µg/mL

Others:
# CAR-J2 EC50 lookup, item P1AE5747 (antibody, V domains shown) VH: QVQLVESGGGVVQPGRSLRLSCAASGFSFSNYGMAWVRQAPGKGLEWVASISTGGGNTYYADSVKGRFTISRDNSKNTLYLQMNSLRAEDTAVYYCTRHDRGGLYWGQGTMVTVSS VL: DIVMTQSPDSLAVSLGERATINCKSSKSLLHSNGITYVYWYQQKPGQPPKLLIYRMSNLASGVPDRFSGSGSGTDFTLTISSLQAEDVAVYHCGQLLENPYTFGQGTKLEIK
0.183 µg/mL
